Target: T1, human 4-1BB-His protein (human, UniProt Q07011 24-186)
T1 construct: Recombinant His-tagged protein; also called human 4-1BB-his tag; recombinant 4-1BB protein; not shown: His tag
Assay: SPR, Biacore T200, antibody captured on Protein A chip, human 4-1BB-His as analyte
Protocol: A serial dilution of human 4-1BB-his tag protein was injected over captured antibody for 30 s at a flow rate of 30 μl/min. The antigen was allowed to dissociate for 360 s. All the experiments were carried out on a Biacore T200. Data analysis was carried out using the Biacore T200 evaluation software.
I'd be grateful if you could share measured Kd for these entries.
Your answer should be a plain number; it is taken to be in nM.

Noted for B16 chimeric mAb (VHH, Alpaca VHH tested as 'chimeric mAb') VHH: QVQLVESGGGLVQPGGSLRLSCAASGFTLDYYAIGWFRQAPGKEREGVSCISSSDGSTYYADSVKGRFTISRDNAKNTVYLQMNSLKPEDTAVYYCATDTTTRCPIWSYYVESDYWGQGTQVTVSS : its Kd reads 21.5

For reference, reported Kd for B125 chimeric mAb (VHH, Alpaca VHH tested as 'chimeric mAb') VHH: QVQLVESGGGLVQPGGSLRLSCAASGFAFSDYAIGWFRQAPGKEREGVSCISSSDGSTYYADSVKGRFTISRDNAKNTVYLQMNSLKPEDTAVYYCATDTTTRCPIWSYYVESDYWGQGTQVTVSS stands at 21

Lab note: measured Kd of B31 chimeric mAb (VHH, Alpaca VHH tested as 'chimeric mAb' expressed in 293F cells, purified by protein G, detected with anti-human IgG and captured on Protein A; also called B31 chimeric antibody) VHH: QVQLVESGGGLVQAGGSLRLSCAASGDIFSIMFWYRQPQGKQREYVAHITSNGRTNYADSVTGRFTISRGNNDNTMYLQMDNLKPQDTAVYYCAADDATNTRTYWGQGTQVTVSS was 3.16

Note to self: Kd recorded for B164 chimeric mAb (VHH, Alpaca VHH tested as 'chimeric mAb') VHH: EVQLVESGGGLVQAGGSLRLSCAASGSIFSYMFWYRQPQGKQREYVAHITSGGRTNYADSVTGRFTISRGNNDNTMYLQMNNLKPEDTAVYYCAADDAVYTDRTYWGQGTQVTVSS was 0.526

Lab note: measured Kd of B210 chimeric mAb (VHH, Alpaca VHH tested as 'chimeric mAb') VHH: EVQLVESGGGLVQPGGSLRLSCAASGLSLDYYAIGWFRQAPGKEREGVSCISSSGRSTNYADSVKGRFTISRDNAKNTVYLQMNSLKPEDTADYYCATDTTTRCPIWSNYVESDYWGQGTQVTVSS was 90.4

Every entry's value here was drawn from patent US20240417482A1.
